# System: Escherichia coli TOP10;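 note: peptides expressed intracellularly from a pBAD plasmid library in pooled LB shake-flask culture, induced with 0.3% L-arabinose, DNA abundance read by NGS, three biological replicates, DESeq2 with apeglm shrinkage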
# method description: shrunken log2 fold change of peptide-encoding DNA abundance (4.5 h post-induction vs induction); higher = less antimicrobial activity (less host growth inhibition)
# measurement parameters: time post-induction: 4.5 h; library: site-saturation at positions 5, 18, 19, 20
If the reported shrunken log2 fold change equals or exceeds 0.03, assign 1. If not, assign 0.

Determine whether this sequence has shrunken log2 fold change no lower than 0.03: RRIRMRPPRLPRPRPRPNKNPRP
1

API: above_or_equal(metric=shrunken log2 fold change, cutoff=0.03) for item RRIRPRPPRLPRPRPRPWWLPRP
0

Dear colleague, could you confirm whether RRIRGRPPRLPRPRPRPCQWPRP has shrunken log2 fold change at or above 0.03?
0

Please tell me: is the sequence RRIRNRPPRLPRPRPRPNVTPRP at or over 0.03 in terms of shrunken log2 fold change?
0

Evaluate RRIRSRPPRLPRPRPRPLKWPRP : shrunken log2 fold change at minimum 0.03?
1

Is it the case that RRIRARPPRLPRPRPRPKGFPRP has shrunken log2 fold change reaching or exceeding 0.03?
1

Is shrunken log2 fold change for RRIRKRPPRLPRPRPRPVPLPRP at or above 0.03?
1

# bool: shrunken log2 fold change of RRIRRRPPRLPRPRPRPCKDPRP >= 0.03
0

Decide: shrunken log2 fold change of RRIRDRPPRLPRPRPRPVPKPRP >= 0.03?
1

State whether the measured shrunken log2 fold change reaches 0.03, counting equality as reaching it, for RRIRMRPPRLPRPRPRPAREPRP
1

Has RRIRLRPPRLPRPRPRPIGVPRP a recorded shrunken log2 fold change greater than or equal to 0.03?
0

Is reported shrunken log2 fold change greater than or equal to 0.03 here: RRIRYRPPRLPRPRPRPEPKPRP
1

Determine whether measured shrunken log2 fold change meets or exceeds 0.03 for RRIRDRPPRLPRPRPRPYDQPRP
0

Is reported shrunken log2 fold change greater than or equal to 0.03 here: RRIRERPPRLPRPRPRPWAEPRP
0

Check the entry RRIRYRPPRLPRPRPRPIVFPRP : does shrunken log2 fold change equal or exceed 0.03?
0

Threshold query (shrunken log2 fold change >= 0.03) on RRIRWRPPRLPRPRPRPEKNPRP
1

hey, is shrunken log2 fold change for this one >= 0.03? RRIRYRPPRLPRPRPRPSWFPRP
0

Can RRIRPRPPRLPRPRPRPKENPRP be said to have shrunken log2 fold change at or above 0.03?
0

Dear colleague, could you confirm whether RRIRIRPPRLPRPRPRPSRCPRP has shrunken log2 fold change at or above 0.03?
0

Decide: shrunken log2 fold change of RRIRHRPPRLPRPRPRPVHLPRP >= 0.03?
0

I'd appreciate it if you could say whether RRIRVRPPRLPRPRPRPEPAPRP has shrunken log2 fold change at least equal to 0.03.
1

Given the entry RRIRARPPRLPRPRPRPQGFPRP , answer whether its shrunken log2 fold change meets or surpasses 0.03.
1

Hi, just wondering whether RRIRRRPPRLPRPRPRPHSFPRP shows shrunken log2 fold change of 0.03 or higher.
1

Textbook exercise: given the entry RRIRQRPPRLPRPRPRPHGQPRP , state whether its shrunken log2 fold change is greater than or equal to 0.03.
1

Assess whether reported shrunken log2 fold change for RRIRLRPPRLPRPRPRPNWGPRP sits at 0.03 or higher.
0

Form field: shrunken log2 fold change at least 0.03? Entry: RRIRPRPPRLPRPRPRPYKYPRP
0

# bool: shrunken log2 fold change of RRIRCRPPRLPRPRPRPPKAPRP >= 0.03
0

Please indicate if the recorded shrunken log2 fold change for RRIRGRPPRLPRPRPRPWTFPRP meets or exceeds 0.03.
0

Please tell me: is the sequence RRIRSRPPRLPRPRPRPGLCPRP at or over 0.03 in terms of shrunken log2 fold change?
1

Entry RRIRKRPPRLPRPRPRPSYIPRP : is its shrunken log2 fold change no less than 0.03?
0

Reported shrunken log2 fold change reaches at least 0.03 for RRIRVRPPRLPRPRPRPPLMPRP ?
1

Exam item: decide whether the reported shrunken log2 fold change for RRIRVRPPRLPRPRPRPVMYPRP is at least 0.03.
0

Hello, I need to know if RRIRMRPPRLPRPRPRPFKKPRP has measured shrunken log2 fold change not below 0.03. Thanks!
0

Please check the record RRIRKRPPRLPRPRPRPHNYPRP and state if its shrunken log2 fold change is at or above 0.03.
0

I'd appreciate it if you could say whether RRIRQRPPRLPRPRPRPTQWPRP has shrunken log2 fold change at least equal to 0.03.
1
